target: AGO2 T357M (Homo sapiens, UniProt Q9UKV8 1-859, T357M;S387D;S824A;S828D;S831D;S834A); experiment: RNA Bind-n-Seq (nitrocellulose filter binding and sequencing); miR-122 guide loaded in AGO2; 60 min incubation; 30 mM Tris pH 8.0, 100 mM potassium acetate, 2 mM magnesium acetate, 0.5 mM TCEP, 0.005% NP-40, 0.01 mg/ml yeast tRNA; 3 nM AGO2-miR-122, 100 nM RNA library; 60; high values mean tight binding; conditions: protein: recombinant; tags: His6 (N-terminal, pFastBac HTA)
Sequence (Q9UKV8 whole entry T357M/S387D/S824A/S828D/S831D/S834A): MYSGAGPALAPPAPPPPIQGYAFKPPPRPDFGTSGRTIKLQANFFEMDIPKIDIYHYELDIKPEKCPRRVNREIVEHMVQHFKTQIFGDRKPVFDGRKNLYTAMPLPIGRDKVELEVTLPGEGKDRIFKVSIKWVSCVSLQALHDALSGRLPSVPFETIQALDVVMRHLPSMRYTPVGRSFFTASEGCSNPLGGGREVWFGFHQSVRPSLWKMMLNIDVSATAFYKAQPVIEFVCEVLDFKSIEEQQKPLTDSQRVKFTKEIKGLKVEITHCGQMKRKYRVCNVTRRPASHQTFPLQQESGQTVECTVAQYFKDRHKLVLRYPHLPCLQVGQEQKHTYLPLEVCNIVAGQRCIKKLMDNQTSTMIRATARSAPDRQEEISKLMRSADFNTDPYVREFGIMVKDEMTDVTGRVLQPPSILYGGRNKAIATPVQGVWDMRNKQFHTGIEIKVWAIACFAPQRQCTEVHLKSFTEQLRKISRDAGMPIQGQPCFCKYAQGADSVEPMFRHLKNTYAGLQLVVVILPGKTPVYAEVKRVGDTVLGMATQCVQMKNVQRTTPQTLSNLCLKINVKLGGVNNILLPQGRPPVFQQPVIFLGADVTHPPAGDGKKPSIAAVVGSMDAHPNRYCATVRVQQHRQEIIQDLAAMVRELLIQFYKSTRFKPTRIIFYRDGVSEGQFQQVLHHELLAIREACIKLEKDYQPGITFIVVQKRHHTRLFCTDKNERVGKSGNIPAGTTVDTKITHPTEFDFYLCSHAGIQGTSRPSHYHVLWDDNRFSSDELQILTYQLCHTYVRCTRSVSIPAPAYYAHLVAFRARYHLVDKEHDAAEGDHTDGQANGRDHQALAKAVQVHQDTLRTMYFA
Answer each item with its documented binding signal.

The recorded binding signal for GCGCCCCA (ssRNA, constant regions annealed to DNA blockers; guide miR-122 5' phosphate) RNA 1: GAGUUCUACAGUCCGACGAUCCCAACGCGCCCCACACCUGGAAUUCUCGGGUGCCAA RNA 2: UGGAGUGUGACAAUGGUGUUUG DNA 1: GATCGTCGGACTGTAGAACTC DNA 2: TTGGCACCCGAGAATTCCA is 0.741 fold enrichment over input

The recorded binding signal for GCACCTTG (ssRNA, constant regions annealed to DNA blockers; guide miR-122 5' phosphate) RNA 1: GAGUUCUACAGUCCGACGAUCCCAACGCACCUUGCACCUGGAAUUCUCGGGUGCCAA RNA 2: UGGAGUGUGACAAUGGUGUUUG DNA 1: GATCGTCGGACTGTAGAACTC DNA 2: TTGGCACCCGAGAATTCCA is 0.503 fold enrichment over input

These measurements were taken from paper PMC12529666.
